Where do the numbers come from? From ChEMBL document CHEMBL3039007.

molecular target: Solute carrier organic anion transporter family member 1B1 (Homo sapiens); details: chinese hamster, cho, 10 µM
Sequence (Q9Y6L6 whole entry): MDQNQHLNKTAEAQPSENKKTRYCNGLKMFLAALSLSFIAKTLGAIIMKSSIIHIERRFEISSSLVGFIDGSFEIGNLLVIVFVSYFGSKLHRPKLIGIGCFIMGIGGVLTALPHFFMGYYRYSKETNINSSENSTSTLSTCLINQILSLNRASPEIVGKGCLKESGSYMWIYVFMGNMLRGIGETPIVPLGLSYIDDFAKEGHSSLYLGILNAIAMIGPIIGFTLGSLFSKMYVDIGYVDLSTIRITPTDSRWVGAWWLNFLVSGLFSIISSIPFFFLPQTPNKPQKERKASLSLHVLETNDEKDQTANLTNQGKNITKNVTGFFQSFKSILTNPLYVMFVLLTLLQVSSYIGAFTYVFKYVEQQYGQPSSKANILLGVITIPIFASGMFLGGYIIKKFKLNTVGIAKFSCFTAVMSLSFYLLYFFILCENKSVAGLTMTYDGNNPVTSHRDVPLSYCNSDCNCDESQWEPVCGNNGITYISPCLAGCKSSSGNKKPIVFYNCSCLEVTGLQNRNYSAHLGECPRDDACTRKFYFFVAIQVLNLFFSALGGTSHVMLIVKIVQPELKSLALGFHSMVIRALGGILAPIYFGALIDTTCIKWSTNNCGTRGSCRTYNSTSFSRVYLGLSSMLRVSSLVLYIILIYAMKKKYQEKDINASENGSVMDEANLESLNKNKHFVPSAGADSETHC
Where a name gives a salt, the structure may show the parent alone. Starred links: 1 amine or outer side, 2 acyl side, 3 side chain; linkers in the order of their positions; H or OH if unused. Positions of bridges follow the written chain, without caps; N, C: chain ends. Non-standard residues stand in square brackets, D forms with d. Residues, ends and D or L forms follow the SMILES beside them. ξ: configuration not given here. *: point of attachment. X1 = N=C1NCCC([C@H](N[*:1])C(=O)[*:2])N1; ΔAla(Z-3-ureido) = NC(=O)N/C=C(\N)C(=O)O; ξβ3hOrn = NCCCC(N)CC(=O)*; Dap = NC[C@H](N)C(=O)O
What residual activity was measured for each of the following?
Answers are plain numbers, in %.

[
  {
    "Compound": "C[C@@H]1O[C@@H](OC[C@H]2O[C@@H](Oc3c(-c4ccc(OCCO)c(OCCO)c4)oc4cc(OCCO)cc(O)c4c3=O)[C@H](O)[C@@H](O)[C@@H]2O)[C@H](O)[C@H](O)[C@H]1O [TROXERUTIN]",
    "Readout Label": "residual activity",
    "Reported": 61.9
  },
  {
    "Compound": "Cc1cc(=O)[nH]c(=S)[nH]1 [METHYLTHIOURACIL]",
    "Readout Label": "residual activity",
    "Reported": 83.19
  },
  {
    "Compound": "CC(C)C[C@H](CN)CC(=O)O [PREGABALIN]",
    "Readout Label": "residual activity",
    "Reported": 120.6
  },
  {
    "Compound": "C[C@@H]1NC(=O)[C@@H](N)CNC(=O)[C@H](C2CCNC(=N)N2)NC(=O)/C(=C/NC(N)=O)NC(=O)[C@H](CNC(=O)CC(N)CCCN)NC1=O.N=C1NCCC([C@@H]2NC(=O)/C(=C/NC(N)=O)NC(=O)[C@H](CNC(=O)CC(N)CCCN)NC(=O)[C@H](CO)NC(=O)[C@@H](N)CNC2=O)N1.O=S(=O)(O)O.O=S(=O)(O)O (stereo partly drawn) [CAPREOMYCIN SULFATE] (H-[Dap]S[Dap](ξβ3hOrn)[ΔAla(Z-3-ureido)][X1]; lactam 1-C)",
    "Readout Label": "residual activity",
    "Reported": 89.76
  }
]

Your task in this section: give residual activity for each listed record.
1. CC[C@@H](CO)NC(=O)[C@@H]1C=C2c3cccc4[nH]cc(c34)C[C@H]2N(C)C1.O=C(O)/C=C\C(=O)O [METHYLERGONOVINE MALEATE]
2. COc1cc2c(cc1OC)[C@@H]1C(=O)c3ccc(OC)c(CC=C(C)C)c3O[C@@H]1CO2 [ROTENONIC ACID, METHYL ETHER]
3. CC(=O)O[C@@](C)(CCC=C(C)C)C1CC=C(C)CC1 (stereo partly drawn) [BISABOLOL ACETATE]
4. CC(=O)Nc1c(I)cc(I)c(C(=O)O)c1I [ACETRIZOIC ACID]
5. O=C(/C=C/C(=O)Oc1ccccc1C(=O)O)Oc1ccccc1C(=O)O [BISSALICYL FUMARATE]
6. O=C(O)c1cc2cc(F)ccc2[nH]1 [5-FLUOROINDOLE-2-CARBOXYLIC ACID]
7. COc1ccc2c(c1)c(CC(=O)OCC(=O)O)c(C)n2C(=O)c1ccc(Cl)cc1 [ACEMETACIN]

1. 77.53
2. 77.03
3. 80.65
4. 133.1
5. 104.8
6. 108.9
7. 57.75

Required: residual activity, one value per compound below.
1. CC(C)(C)N.CCC[C@H](N[C@@H](C)C(=O)N1[C@H](C(=O)O)C[C@@H]2CCCC[C@@H]21)C(=O)OCC [PERINDOPRIL ERBUMINE]
2. NS(=O)(=O)c1cc2c(cc1Cl)NCNS2(=O)=O [HYDROCHLOROTHIAZIDE]

[107.5, 68.94]
